Molecular target: T1, hu-M-IL1RAP construct, positions S21-T367 (extracellular domain of the membrane form of human IL1RAP) (human, UniProt Q9NPH3 21-367)
T1 construct: Biotinylated when captured on the Biacore chip
T1 sequence: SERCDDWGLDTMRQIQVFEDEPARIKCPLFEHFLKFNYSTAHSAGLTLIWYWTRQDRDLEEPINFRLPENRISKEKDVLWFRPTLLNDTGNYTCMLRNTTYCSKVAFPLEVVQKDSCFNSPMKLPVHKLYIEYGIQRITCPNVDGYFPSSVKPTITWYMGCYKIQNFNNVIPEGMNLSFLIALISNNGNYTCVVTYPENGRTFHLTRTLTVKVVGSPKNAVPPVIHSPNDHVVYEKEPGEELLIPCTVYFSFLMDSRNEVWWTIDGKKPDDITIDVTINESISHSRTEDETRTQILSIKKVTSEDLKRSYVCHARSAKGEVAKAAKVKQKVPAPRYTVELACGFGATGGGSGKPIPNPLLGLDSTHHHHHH
Assay: SPR, Fab analyte, 37 C
pKd: −log10 of the molar value.
Known pKd of a selection of binders

binder | pKd
K17/H3 Fab (VL-A51Y/W92K, VH-V51S) (Fab, V domains shown, Fab with 8xHis tag) VH: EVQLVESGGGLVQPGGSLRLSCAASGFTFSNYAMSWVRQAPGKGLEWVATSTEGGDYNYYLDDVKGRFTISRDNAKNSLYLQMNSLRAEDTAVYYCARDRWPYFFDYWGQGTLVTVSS VL: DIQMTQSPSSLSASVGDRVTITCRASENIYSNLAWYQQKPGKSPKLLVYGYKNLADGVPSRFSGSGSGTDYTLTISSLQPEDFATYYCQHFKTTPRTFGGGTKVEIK | 10.50
K13/H3 Fab (VL-A51Y/W92I, VH-V51S) (Fab, V domains shown, Fab with 8xHis tag) VH: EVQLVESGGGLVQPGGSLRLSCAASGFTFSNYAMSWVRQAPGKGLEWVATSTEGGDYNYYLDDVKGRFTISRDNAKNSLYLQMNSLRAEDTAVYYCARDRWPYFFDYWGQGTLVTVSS VL: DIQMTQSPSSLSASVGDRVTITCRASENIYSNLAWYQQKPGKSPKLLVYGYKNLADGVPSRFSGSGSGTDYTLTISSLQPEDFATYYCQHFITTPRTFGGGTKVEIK | 10.68
K13/H2 Fab (VL-A51Y/W92I, VH-R96D) (Fab, V domains shown, Fab with 8xHis tag) VH: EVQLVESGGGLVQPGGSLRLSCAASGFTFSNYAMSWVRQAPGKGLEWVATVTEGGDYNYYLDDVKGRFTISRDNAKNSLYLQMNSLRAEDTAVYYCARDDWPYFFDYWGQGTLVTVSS VL: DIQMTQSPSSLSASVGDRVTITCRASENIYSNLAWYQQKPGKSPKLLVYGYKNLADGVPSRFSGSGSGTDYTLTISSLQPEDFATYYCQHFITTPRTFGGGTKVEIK | 10.64
